Test system: human epithelial HeLa cells
protocol.description: HeLa cytotoxicity assay (CellTiter-Glo)
Type: cell-based
protocol.conditions: pCC50
measurement.label: HELA_IDO1_TOX_PXC50

[[record]]
compound = "CC(C)CN(c1ccc(-c2ccccc2C(=O)O)cc1Nc1nc(C(=O)O)ns1)C1CCCCC1 [example 275]"
system_name = "human epithelial HeLa cells"
result = "<5"

[[record]]
compound = "CC(C)CN(CC(C)C)c1ccc(C(C)CC(=O)O)cc1Nc1ccc(NS(C)(=O)=O)cn1 (stereo not shown) [example 200]"
system_name = "human epithelial HeLa cells"
result = "<5"

[[record]]
compound = "CC(C)CN(c1ccc(-c2cccnc2C(=O)O)cc1Nc1nc(C(F)(F)F)ns1)C1CCCCC1 [Example 88]"
system_name = "human epithelial HeLa cells"
result = "<5"

[[record]]
compound = "CC(C)CN(CC(C)C)c1ccc(C(C)CC(=O)O)cc1Nc1nc(C2CCOCC2)cs1 (stereo not shown) [example 138]"
system_name = "human epithelial HeLa cells"
result = "<4.3"

[[record]]
compound = "CC(C)CN(c1ccc([C@H](C)CC(=O)O)cc1Nc1nc(C(F)(F)F)ns1)C1CCN(C(=O)OC(C)C)CC1 [Example 65]"
system_name = "human epithelial HeLa cells"
result = "<5"


Turning to the following compound.
Query: HELA_IDO1_TOX_PXC50 for CC(C)CN(c1ccc([C@H](C)CC(=O)O)cc1Nc1cnc(C(F)(F)F)nc1)C1CCOCC1 [Example 9] ?
Reply: <5
